EXPERIMENTAL_TARGET: T1, human serum albumin (human, UniProt P02768 25-609)
T1 construct: mature; Bought protein; biotinylated in the Octet and HTRF assays; also called HSA; HuSA
PROTOCOL: SPR (Biacore), immobilised HSA, Affimer analyte
Each record is given Condition met if its reported Kd is strictly below 10 nM. Records at or above 10 nM are given Condition not met.

As a guide, the following entries are already answered.
AVA04-236 XT7 (designed binder) MIPRGLSEAKPATPEIQEIVDKVKPQLEEKTNETYGKLEAVQYKTQVLAKEHGPDSWWSTNYYIKVRAGDNKYMHLKVFNGPQEKNQWVEEADRVLTGYQVDKNKDDELTGFGGGGSGGGGSGGGGSGGGGSGGGGSGGGGSMIPRGLSEAKPATPEIQEIVDKVKPQLEEKTNETYGKLEAVQYKTQVLANFFQRRWPGSTNYYIKVRAGDNKYMHLKVFNGPWKFRNTDRGADRVLTGYQVDKNKDDELTGFHHHHHH = Condition not met
AVA04-261 XT10 (designed binder) MIPRGLSEAKPATPEIQEIVDKVKPQLEEKTNETYGKLEAVQYKTQVLAHAYGPRDWDSTNYYIKVRAGDNKYMHLKVFNGPPADHVLEEAADRVLTGYQVDKNKDDELTGFAEAAAKEAAAKEAAAKEAAAKEAAAKEAAAKMIPRGLSEAKPATPEIQEIVDKVKPQLEEKTNETYGKLEAVQYKTQVLANFFQRRWPGSTNYYIKVRAGDNKYMHLKVFNGPWKFRNTDRGADRVLTGYQVDKNKDDELTGFHHHHHH = Condition met
HSA-41 (designed binder, also called HSA-41 parent; HSA-41 AH parent) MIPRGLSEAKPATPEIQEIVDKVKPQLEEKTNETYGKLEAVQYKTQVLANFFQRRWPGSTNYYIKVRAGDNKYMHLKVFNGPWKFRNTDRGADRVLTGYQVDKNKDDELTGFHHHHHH = Condition met
AVA04-269 XT11 (designed binder) MIPRGLSEAKPATPEIQEIVDKVKPQLEEKTNETYGKLEAVQYKTQVLAKEYGPEEWWSTNYYIKVRAGDNKYMHLKVFNGPGDYEQVLIHADRVLTGYQVDKNKDDELTGFGGGGSGGGGSGGGGSGGGGSGGGGSGGGGSMIPRGLSEAKPATPEIQEIVDKVKPQLEEKTNETYGKLEAVQYKTQVLANFFQRRWPGSTNYYIKVRAGDNKYMHLKVFNGPWKFRNTDRGADRVLTGYQVDKNKDDELTGFHHHHHH = Condition not met

Query: Just wondering, is Kd of AVA04-269 XT12 (designed binder) MIPRGLSEAKPATPEIQEIVDKVKPQLEEKTNETYGKLEAVQYKTQVLAKEYGPEEWWSTNYYIKVRAGDNKYMHLKVFNGPGDYEQVLIHADRVLTGYQVDKNKDDELTGFAEAAAKEAAAKEAAAKEAAAKEAAAKEAAAKMIPRGLSEAKPATPEIQEIVDKVKPQLEEKTNETYGKLEAVQYKTQVLANFFQRRWPGSTNYYIKVRAGDNKYMHLKVFNGPWKFRNTDRGADRVLTGYQVDKNKDDELTGFHHHHHH below 10 nM?
Response: Condition not met

Query: Then this binder: AVA04-236 XT8 (designed binder) MIPRGLSEAKPATPEIQEIVDKVKPQLEEKTNETYGKLEAVQYKTQVLAKEHGPDSWWSTNYYIKVRAGDNKYMHLKVFNGPQEKNQWVEEADRVLTGYQVDKNKDDELTGFAEAAAKEAAAKEAAAKEAAAKEAAAKEAAAKMIPRGLSEAKPATPEIQEIVDKVKPQLEEKTNETYGKLEAVQYKTQVLANFFQRRWPGSTNYYIKVRAGDNKYMHLKVFNGPWKFRNTDRGADRVLTGYQVDKNKDDELTGFHHHHHH
Response: Condition met

Value source: patent US20230272011A1
